test: folding enthalpy; higher = less favourable; fluorescence melt of hairpins on a sequencing array, two-state fit; conditions: sodium 0.088 M
property-measured: folding enthalpy (kcal/mol)
State the answer as a number, implicitly in kcal/mol.

Please review the entries below; each comes with its answer.
INSERT INTO measurements (construct_sequence, property_measured, test_value) VALUES
  ('GATCTTAAGGAAGATC ((((((....))))))', 'folding enthalpy', -23.1),
  ('GTCTCCGAAAGGATGGAC ((((((....)))..)))', 'folding enthalpy', -17.6);

Field: next sequence
Determine from records and report folding enthalpy for GCATCCGAAAGGAGTGC ((((((....))).))) -22.5

* * *

assay: melting temperature; fluorescence melt of hairpins on a sequencing array, two-state fit, raised by 9.35 °C to match UV melts; conditions: sodium 0.088 M
Here, each record is paired with measured Tm data.
State the answer as a number, implicitly in °C.

Please review the entries below; each comes with its answer.
INSERT INTO results (construct_sequence, property_measured, unit_abbrev, test_value) VALUES
  ('GACAACGAAAGTTGGGTC ((((((....)))..)))', 'Tm', '°C', 49.8),
  ('GGCTGCGAAAGCAGGGCC ((((((....)))..)))', 'Tm', '°C', 53.1),
  ('GATCGATAGGTCGATC ((((((....))))))', 'Tm', '°C', 53),
  ('GCAAAGGCGAAAGCCTGC (((..(((....))))))', 'Tm', '°C', 54.6);

Determine from records and report Tm for GGTACAGGAAACTGTATC (.(((((....))))).) 43.4

* * *

assay: melting temperature; fluorescence melt of hairpins on a sequencing array, two-state fit, raised by 9.35 °C to match UV melts; conditions: sodium 0.088 M
Here, each record is paired with measured Tm data.
State the answer as a number, implicitly in °C.

INSERT INTO assay_data (construct_sequence, unit_abbrev, test_value) VALUES
  ('GCATTCGAAAGAAGCTGC ((((((....)))..)))', '°C', 40.8),
  ('GGTCAGCGAAAGCTAACC (((.(((....))).)))', '°C', 46.7),
  ('GATCTTTATAAAGATC ((((((....))))))', '°C', 45.5);

Determine from records and report Tm for GATCTTGCGAAGATC ((((((...)))))) 42.8

Determine from records and report Tm for GCATGGCGAAAGCCCGGC ((..(((....)))..)) 43.3

Determine from records and report Tm for GGCAGTGGAAACGCTGTC (.(((.(....).))).) 44.5

* * *

assay: melting temperature; fluorescence melt of hairpins on a sequencing array, two-state fit, raised by 9.35 °C to match UV melts; conditions: sodium 0.088 M
Here, each record is paired with measured Tm data.
State the answer as a number, implicitly in °C.

INSERT INTO assay_data (construct_sequence, property_measured, unit_abbrev, test_value) VALUES
  ('GTGATCGAAAGATGTCAC ((((((....)))..)))', 'Tm', '°C', 29.9),
  ('GCTCTCGAAAGAGTAAGC ((((((....)))..)))', 'Tm', '°C', 39.7),
  ('GTATGCCGAAAGGCGTAC (((.(((....))).)))', 'Tm', '°C', 63.4),
  ('GCTGGGGGAAACCTCGGC ((.(.((....)).).))', 'Tm', '°C', 44.4);

Determine from records and report Tm for GTTACCGAAAGGTCGAAC ((((((....)))..))) 28.2

Determine from records and report Tm for GTGTACCGAAAGGTTCAC (((.(((....))).))) 53.1
